Target: mouse TRESK (mTRESK) (Mus musculus, UniProt Q6VV64)
Sequence (Q6VV64 1-394): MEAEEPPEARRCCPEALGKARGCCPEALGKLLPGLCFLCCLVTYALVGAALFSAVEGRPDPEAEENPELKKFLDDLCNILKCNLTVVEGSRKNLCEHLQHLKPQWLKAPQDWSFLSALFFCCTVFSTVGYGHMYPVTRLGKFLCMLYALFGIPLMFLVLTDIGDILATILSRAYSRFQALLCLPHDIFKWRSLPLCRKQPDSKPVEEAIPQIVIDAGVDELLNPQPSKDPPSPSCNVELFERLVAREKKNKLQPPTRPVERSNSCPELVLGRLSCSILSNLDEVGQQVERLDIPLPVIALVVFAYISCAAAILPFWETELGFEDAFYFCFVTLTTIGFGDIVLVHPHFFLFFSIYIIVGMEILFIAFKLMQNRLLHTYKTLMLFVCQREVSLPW
Test: whole-cell patch clamp dose-response

{"COMPOUND": "CC(C)=CC1C(C(=O)OCN2C(=O)C3=C(CCCC3)C2=O)C1(C)C (stereo not shown)", "IC50 / µM": 34.9}

Source: paper PMC5737456
